Reference source: paper PMC5035018

molecular target: prostacyclin (IP) receptor (Homo sapiens)
Sequence (P43119 1-383): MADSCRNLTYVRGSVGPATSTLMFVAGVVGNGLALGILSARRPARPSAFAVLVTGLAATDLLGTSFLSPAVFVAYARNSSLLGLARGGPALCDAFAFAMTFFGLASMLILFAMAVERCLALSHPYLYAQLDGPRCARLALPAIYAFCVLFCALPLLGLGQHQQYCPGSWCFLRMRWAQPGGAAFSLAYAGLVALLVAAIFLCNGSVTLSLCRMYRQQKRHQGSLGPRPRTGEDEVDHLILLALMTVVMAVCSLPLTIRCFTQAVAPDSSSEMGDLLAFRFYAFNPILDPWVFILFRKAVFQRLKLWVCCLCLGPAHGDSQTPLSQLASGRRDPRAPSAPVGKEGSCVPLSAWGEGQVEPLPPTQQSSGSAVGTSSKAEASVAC
pKi: −log10 of the molar value.
MEASUREMENT_LABEL: pKi

In [3]: df
Out[3]:
                                   compound  obs_value
0  C[C@H](O)CCC/C=C\C/C=C\C/C=C\C/C=C\CCCC(=O)O [19(S)-HETE]       6.18
